All values here come from patent EP0241232A1.

Tested on: Erysiphe graminis f. sp. tritici
Assay: Control by seed-soaking: powdery mildew in wheat
Assay type: in vivo
Details: 125 ppm
parameter measured: Control Index Powdery Mildew in Wheat

Query: // fetch Control Index Powdery Mildew in Wheat given entry OC(Cn1cncn1)(c1ccc(Cl)cc1)c1ccon1 (stereo not shown) [Ia - 2]
Result: 100

----------
Test system: Puccinia coronata
Test: Control by seed-soaking: crown rust in oats
Assay type: in vivo
Conditions: 500 ppm
parameter measured: Control Index Crown Rust in Oats
Give the value as a plain number.

Query: Determine its reported Control Index Crown Rust in Oats: OC(Cn1cncn1)(c1ccc(Cl)cc1)c1ccon1 (stereo not shown)
Result: 100

Query: For the compound Cc1cc(C(O)(Cn2cncn2)c2ccc(Cl)cc2Cl)no1 (stereo not shown) , report Control Index Crown Rust in Oats.
Result: 100

Query: State its Control Index Crown Rust in Oats: OC(Cn1cncn1)(c1ccon1)c1ccc(Cl)cc1Cl (stereo not shown)
Result: 100

----------
Test system: Sphaerotheca fuliginea
Test: Control of cucumber powdery mildew by foliar spray
Format: in vivo
Conditions: foliar spray 2.0 ppm; inoculation 24 hr. before application; observed 10 days after inoculation
Give measured Control Index Curative Effect for each item. Keep answers brief.

Query: Return reported Control Index Curative Effect for target or system Sphaerotheca fuliginea, item OC(Cn1cncn1)(c1ccon1)c1ccc(F)cc1F (centres unmarked) .
Result: 100

Query: Send back Sphaerotheca fuliginea Control Index Curative Effect of OC(Cn1cncn1)(c1ccc(Cl)cc1)c1ccon1 (centres unmarked) only.
Result: 100

Query: Give Control Index Curative Effect; test system Sphaerotheca fuliginea; compound OC(Cn1cncn1)(c1ccon1)c1ccc(Cl)cc1Cl (centres unmarked)
Result: 100
